B1: Pistol ribozyme (parent)
chain: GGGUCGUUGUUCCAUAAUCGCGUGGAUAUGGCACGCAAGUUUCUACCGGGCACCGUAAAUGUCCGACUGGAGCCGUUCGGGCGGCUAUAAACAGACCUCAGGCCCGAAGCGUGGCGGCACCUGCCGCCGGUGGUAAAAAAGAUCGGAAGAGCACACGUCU

variants of: B1; assay: aptazyme ON/OFF ratio, guanine; higher = stronger switching; co-transcriptional cleavage with and without guanine
Reported values of aptazyme ON/OFF ratio for individual entries
Recorded Metric: aptazyme ON/OFF ratio

>>> reported_measurement("U7G U8C G9C U11A C13U")
1.18
>>> reported_measurement("U7A U8A G9U C13U")
1.21
>>> reported_measurement("U7A G9A U10G C12G C13A")
1.21
>>> reported_measurement("U7G U8A G9C U10C U11C C12G C13G")
1.04
>>> reported_measurement("U8C G9C U10C C12U C13U")
1.06
>>> reported_measurement("U8C G9C U10A U11A C12U C13U")
1.08
>>> reported_measurement("U7C U8C U11A C12A C13G")
1.15
>>> reported_measurement("U10A U11G C13A")
1.33
>>> reported_measurement("U7C U8C G9C U10C U11A C12G")
1.11
>>> reported_measurement("U7G U10G U11A C13G")
1.07
>>> reported_measurement("U7C U10A U11A C13G")
1.2
>>> reported_measurement("U7C U8A G9A U10C U11A C13A")
1.2
>>> reported_measurement("U8C G9A U11A C12A C13U")
1.34
>>> reported_measurement("U7C U8A G9A C12U C13A")
1.19
>>> reported_measurement("U7G U8G G9U U10G U11C C12G")
1.11
>>> reported_measurement("U7G U8C G9A U10A U11G C12G C13U")
1.09
>>> reported_measurement("U7C G9U U10A U11A")
1.42
>>> reported_measurement("U7C U8C G9C U11G C12U")
1.12
>>> reported_measurement("U7C U8G G9A U10A C13A")
1.12
>>> reported_measurement("U7G G9U U10G U11G C12U C13U")
1.29
>>> reported_measurement("U7C U8A G9A U10G U11C")
1.03
>>> reported_measurement("G9C U10A C12A C13A")
1.21
>>> reported_measurement("U7G U8G G9A U10C U11A C12A C13U")
1.25
>>> reported_measurement("U8G G9A U10G U11G C12G C13A")
1.19
>>> reported_measurement("U8G G9C U10G U11A C12U C13A")
1.16
>>> reported_measurement("G9C U10C C12A C13A")
1.03
>>> reported_measurement("U7G U8G C12U")
1.21
>>> reported_measurement("U7A U8A G9C U10A U11A C13G")
1.09
>>> reported_measurement("U7C G9C U11C C12U C13A")
1.05
>>> reported_measurement("U7A U8C G9A U10A U11C C12U")
1.09
>>> reported_measurement("U7C U11C C12U")
1.5
>>> reported_measurement("U8A G9U U10C U11C C12G C13G")
1.08
>>> reported_measurement("U7A U8C C12A")
1.42
>>> reported_measurement("U8A U11G C12G C13G")
1.27
>>> reported_measurement("U8G G9U U10G U11C C12U C13U")
1.03
>>> reported_measurement("U7C U8C U11A C13U")
1.27
>>> reported_measurement("U8A G9U U10G U11A C12A C13G")
1.16
>>> reported_measurement("U7C U10C U11A C13U")
1.38
>>> reported_measurement("U7C U8C U10G U11C C12A C13U")
1.15
>>> reported_measurement("C12G C13G")
1.33
>>> reported_measurement("U7G U8C G9A U10A C12G C13G")
1.08
>>> reported_measurement("U7G U8C U10A U11A C13U")
1.21
>>> reported_measurement("U7C G9C U11G C12A")
1.01
>>> reported_measurement("G9A U11G C12G")
1.3
>>> reported_measurement("U7A U8G U11G C12A C13G")
1.33
>>> reported_measurement("U7G U8C U10C U11A C12A C13G")
1.14
>>> reported_measurement("U7C U8G G9A U10G U11C C12U")
1.14
>>> reported_measurement("U7G U8C G9A U10G U11A C12G")
1.08
>>> reported_measurement("U7A U8G G9C U11G C13A")
1.43
>>> reported_measurement("U7A G9C U10A U11C C12U")
1.07
>>> reported_measurement("U7C U8A G9A U10A U11A")
1.22
>>> reported_measurement("U7C G9C U10A")
1.06
>>> reported_measurement("G9A U10C U11A C12U C13G")
1.29
>>> reported_measurement("G9A U10G U11C C12U C13A")
1.26
>>> reported_measurement("U8A U11C C12A C13A")
1.24
>>> reported_measurement("U7A G9A U10A U11G C12U C13U")
1.42
>>> reported_measurement("U7A G9A U10G U11C C12U C13U")
1.21
>>> reported_measurement("U7G U8C G9U U11G C13G")
1.05
>>> reported_measurement("U8G G9C U10G U11C C12G C13A")
1.08
>>> reported_measurement("U7C U8C U11C C12G C13A")
1.4
>>> reported_measurement("U7C U8A G9U C12A C13U")
1.15
>>> reported_measurement("U7A G9A U11A C13G")
1.11
>>> reported_measurement("U7A U8G G9U U10G U11A C12G C13U")
1.02
>>> reported_measurement("U7A U8G G9C U10C U11A C12A")
1.21
